# target-of-assay: human liver Cathepsin B (Homo sapiens)
# Construct: human liver Cathepsin B (manufactured by Sigma-Aldrich Co. LLC, Cat No. C8571 25 μg/vial); purchased Sigma-Aldrich Co. LLC C8571; host or cells: human liver
# measurement-protocol: Metabolism test using human liver Cathepsin B
# Assay type: in vitro ADME
# measurement-parameters: 37° C., 24 hours, released drug, LC-MS/MS
# Description: […] The release rate (%) of drug was calculated by the following equation.
Numbered stars: 1 amine (or outer) side, 2 acyl side, 3 side chain; on linkers, the order of the positions; unused ones are H or OH. Square brackets hold non-standard residues; d marks the D form. Peptide text beside a SMILES is read from it. * marks the point of attachment. βAla(2S-maleimido) = O=C1C=CC(=O)N1[C@@H](CN[*:1])C(=O)[*:2]; Dolaproine = CO[C@@H]([C@@H]1CCCN1)[C@@H](C)C(=O)O; Dil = CC[C@H](C)[C@H](NC)[C@@H](CC(=O)O)OC; PABC = O=C(OCc1ccc(N[*:1])cc1)[*:2]; X1 = C[C@@H](N*)[C@@H](O)c1ccccc1; hSer(lactone) = O=C1OCC[C@@H]1N*; Cit = NC(=O)NCCC[C@H](N)C(=O)O; PEG4 = NCCOCCOCCOCCOCCC(=O)O; NMeV = CN[C@H](C(=O)O)C(C)C; X2 = O=C1CC[C@@H](C(=O)*)O1
Known Release rate (%) of drug from ADC of a selection of molecules
assay-endpoint: Release rate (%) of drug from ADC

- CC[C@H](C)[C@@H]([C@@H](CC(=O)N1CCC[C@H]1[C@H](OC)[C@@H](C)C(=O)N[C@H](C)[C@@H](O)c1ccccc1)OC)N(C)C(=O)[C@@H](NC(=O)[C@H](C(C)C)N(C)C(=O)OCc1ccc(NC(=O)[C@H](CCCNC(N)=O)NC(=O)[C@@H](NC(=O)[C@H](CC(=O)N[C@H]2CCOC2=O)NC(=O)CCOCCOCCOCCOCCNC(=O)[C@H](CNC(=O)[C@@H]2CCC(=O)O2)N2C(=O)C=CC2=O)C(C)C)cc1)C(C)C [Example 7] (X2-[βAla(2S-maleimido)][PEG4]D(hSer(lactone))V[Cit][PABC][NMeV]V[Dil][Dolaproine]-X1): 65
- CC[C@@]1(OC(=O)OCc2ccc(NC(=O)[C@H](CCCNC(N)=O)NC(=O)[C@@H](NC(=O)[C@H](CC(=O)N[C@H]3CCOC3=O)NC(=O)CCOCCOCCOCCOCCNC(=O)[C@H](CNC(=O)CCP(=O)(O)O)N3C(=O)C=CC3=O)C(C)C)cc2)C(=O)OCc2c1cc1n(c2=O)Cc2c-1nc1cc(F)c(C)c3c1c2[C@@H](NC(C)=O)CC3: 28

All figures here come from patent US20250170267A1.
